test system: Staphylococcus sp.; experiment: In vitro antibacterial evaluation: minimum inhibitory concentration (MIC), broth dilution method; assay type: cell-based; details: strain GC 4545
Would you kindly list MIC Staphylococcus aureus (GC 4545) for each of these compounds?
API: value field is a number in µg/mL; no unit string.

GET /values?readout=MIC Staphylococcus aureus (GC 4545)&item= CC(c1ccccc1)C1NC(=O)CNC(=O)C(CO)NC(=O)C(CC2CNC(=N)N2C2OC(CO)C(O)C(O)C2O)NC(=O)C(CC2CNC(=N)N2)NC(=O)C(Cc2ccc(OC3OC(CO)C(OC4OC5COC6(OC5C(O)C4O)C4CC5CC(C4)CC6C5)C(O)C3O)cc2)NC1=O (stereo not shown) [Example 219]
2

GET /values?readout=MIC Staphylococcus aureus (GC 4545)&item= CCCC(C)C1OCC2OC(OC3C(CO)OC(Oc4ccc(CC5NC(=O)C(C(C)c6ccc(Cl)cc6)NC(=O)CNC(=O)C(CO)NC(=O)C(C(O)C6CNC(=N)N6C6OC(CO)C(O)C(O)C6O)NC(=O)C(C(O)C6CNC(=N)N6)NC5=O)cc4)C(O)C3O)C(O)C(O)C2O1 (stereo not shown) [Example 194]
1

GET /values?readout=MIC Staphylococcus aureus (GC 4545)&item= CC(c1ccc(Cl)cc1)C1NC(=O)CNC(=O)C(CO)NC(=O)C(C(O)C2CNC(=N)N2C2OC(CO)C(O)C(O)C2O)NC(=O)C(C(O)C2CNC(=N)N2)NC(=O)C(Cc2ccc(OC3OC(CO)C(OC4OC5COC(C6CCCCC6)OC5C(O)C4O)C(O)C3O)cc2)NC1=O (stereo not shown) [Example 193]
0.5

----------
tested on: Staphylococcus sp.; experiment: In vitro antibacterial evaluation: minimum inhibitory concentration (MIC), broth dilution method; assay type: cell-based; details: strain GC 4542
outcome measure: MIC Staphylococcus aureus (GC 4542) (µg/mL)
API: value field is a number in µg/mL; no unit string.

GET /values?readout=MIC Staphylococcus aureus (GC 4542)&item= CC(c1ccccc1)C1NC(=O)CNC(=O)C(CO)NC(=O)C(CC2CNC(=N)N2C2OC(CO)C(O)C(O)C2O)NC(=O)C(CC2CNC(=N)N2)NC(=O)C(Cc2ccc(OC3OC(CO)C(OC4OC5COC(c6ccc(OCc7ccccc7)cc6)OC5C(O)C4O)C(O)C3O)cc2)NC1=O (stereo not shown)
4

GET /values?readout=MIC Staphylococcus aureus (GC 4542)&item= CCCC(C)C1OCC2OC(OC3C(CO)OC(Oc4ccc(CC5NC(=O)C(C(C)c6ccccc6)NC(=O)CNC(=O)C(CO)NC(=O)C(C(O)C6CNC(=N)N6C6OC(CO)C(O)C(O)C6O)NC(=O)C(C(O)C6CNC(=N)N6)NC5=O)cc4)C(O)C3O)C(O)C(O)C2O1 (stereo not shown)
1

GET /values?readout=MIC Staphylococcus aureus (GC 4542)&item= CC(c1ccccc1)C1NC(=O)CNC(=O)C(CO)NC(=O)C(C(O)C2CNC(=N)N2C2OC(CO)C(O)C(O)C2O)NC(=O)C(C(O)C2CNC(=N)N2)NC(=O)C(Cc2ccc(OC3OC(CO)C(OC4OC5COC(C6CCCCC6)OC5C(O)C4O)C(O)C3O)cc2)NC1=O (stereo not shown)
1

GET /values?readout=MIC Staphylococcus aureus (GC 4542)&item= CC(c1ccccc1)C1NC(=O)CNC(=O)C(CO)NC(=O)C(C(O)C2CNC(=N)N2C2OC(CO)C(O)C(O)C2O)NC(=O)C(C(O)C2CNC(=N)N2)NC(=O)C(Cc2ccc(OC3OC(CO)C(OC4OC5COC6(CC7CCC6(C)C7(C)C)OC5C(O)C4O)C(O)C3O)cc2)NC1=O (stereo not shown)
0.5

GET /values?readout=MIC Staphylococcus aureus (GC 4542)&item= CC(c1ccccc1)C1NC(=O)CNC(=O)C(CO)NC(=O)C(C(O)C2CNC(=N)N2C2OC(CO)C(O)C(O)C2O)NC(=O)C(C(O)C2CNC(=N)N2)NC(=O)C(Cc2ccc(OC3OC(CO)C(OC4OC(CO)C(O)C5OC(c6ccccc6)OC45)C(O)C3O)cc2)NC1=O (single isomer, unassigned) [Example 104b]
0.5

GET /values?readout=MIC Staphylococcus aureus (GC 4542)&item= CC(c1ccccc1)C1NC(=O)CNC(=O)C(CO)NC(=O)C(C(O)C2CNC(=N)N2C2OC(CO)C(O)C(O)C2O)NC(=O)C(C(O)C2CNC(=N)N2)NC(=O)C(Cc2ccc(OC3OC(CO)C(OC4OC5COC(CC67CC8CC(CC(C8)C6)C7)OC5C(O)C4O)C(O)C3O)cc2)NC1=O (stereo not shown)
2

GET /values?readout=MIC Staphylococcus aureus (GC 4542)&item= CCCC(CCC)C(=O)OCC1OC(OC2C(CO)OC(Oc3ccc(CC4NC(=O)C(C(C)c5ccccc5)NC(=O)CNC(=O)C(CO)NC(=O)C(C(O)C5CNC(=N)N5C5OC(CO)C(O)C(O)C5O)NC(=O)C(C(O)C5CNC(=N)N5)NC4=O)cc3)C(O)C2O)C(O)C(O)C1O (stereo not shown) [Example 99c]
1

----------
system: Staphylococcus sp.; assay: In vitro antibacterial evaluation: minimum inhibitory concentration (MIC), broth dilution method; assay type: cell-based; conditions: strain GC 4549
outcome measure: MIC Coagulase Negative Staphylococcus (GC 4549) (µg/mL)
API: value field is a number in µg/mL; no unit string.

GET /values?readout=MIC Coagulase Negative Staphylococcus (GC 4549)&item= COc1ccc(Oc2cccc(C3OCC4OC(OC5C(CO)OC(Oc6ccc(CC7NC(=O)C(C(C)c8ccccc8)NC(=O)CNC(=O)C(CO)NC(=O)C(C(O)C8CNC(=N)N8C8OC(CO)C(O)C(O)C8O)NC(=O)C(C(O)C8CNC(=N)N8)NC7=O)cc6)C(O)C5O)C(O)C(O)C4O3)c2)cc1 (stereo not shown) [Example 180]
1

GET /values?readout=MIC Coagulase Negative Staphylococcus (GC 4549)&item= CC(C1CCCCC1)C1NC(=O)CNC(=O)C(CO)NC(=O)C(C(O)C2CNC(=N)N2C2OC(CO)C(O)C(O)C2O)NC(=O)C(C(O)C2CNC(=N)N2)NC(=O)C(Cc2ccc(OC3OC(CO)C(OC4OC5COC(c6ccccc6)OC5C(O)C4O)C(O)C3O)cc2)NC1=O (stereo not shown) [Example 201]
0.25

GET /values?readout=MIC Coagulase Negative Staphylococcus (GC 4549)&item= CC(C)=CCCC(C)=CCOc1ccc(C2OCC3OC(OC4C(CO)OC(Oc5ccc(CC6NC(=O)C(C(C)c7ccccc7)NC(=O)CNC(=O)C(CO)NC(=O)C(C(O)C7CNC(=N)N7C7OC(CO)C(O)C(O)C7O)NC(=O)C(C(O)C7CNC(=N)N7)NC6=O)cc5)C(O)C4O)C(O)C(O)C3O2)cc1 (stereo not shown) [Example 183]
4

GET /values?readout=MIC Coagulase Negative Staphylococcus (GC 4549)&item= CCCC(C)C1OCC2OC(OC3C(CO)OC(Oc4ccc(CC5NC(=O)C(C(C)c6ccccc6)NC(=O)CNC(=O)C(CO)NC(=O)C(C(O)C6CNC(=N)N6C6OC(CO)C(O)C(O)C6O)NC(=O)C(C(O)C6CNC(=N)N6)NC5=O)cc4)C(O)C3O)C(O)C(O)C2O1 (stereo not shown) [Example 111]
0.5

----------
test system: Enterococcus sp.; test: In vitro antibacterial evaluation: minimum inhibitory concentration (MIC), broth dilution method; format: cell-based; settings: broth dilution, inoculum 5×10^5 CFU/mL, 18 hours at 35° C.
Binary label based on MIC Enterococcus faecalis (GC 3059) with cut-off 20 µg/mL: below gives true, not below gives false.

In plain terms, does COc1ccc(COCC2OC(OC3C(CO)OC(Oc4ccc(CC5NC(=O)C(C(C)c6ccccc6)NC(=O)CNC(=O)C(CO)NC(=O)C(C(O)C6CNC(=N)N6C6OC(CO)C(O)C(O)C6O)NC(=O)C(C(O)C6CNC(=N)N6)NC5=O)cc4)C(O)C3O)C(O)C(O)C2O)cc1 (stereo not shown) come in under 20 µg/mL for MIC Enterococcus faecalis (GC 3059)?
false

In plain terms, does CC(c1ccccc1)C1NC(=O)CNC(=O)C(CO)NC(=O)C(C(O)C2CNC(=N)N2C2OC(CO)C(O)C(O)C2O)NC(=O)C(C(O)C2CNC(=N)N2)NC(=O)C(Cc2ccc(OC3OC(CO)C(OC4OC(COCc5cccs5)C(O)C(O)C4O)C(O)C3O)cc2)NC1=O (stereo not shown) come in under 20 µg/mL for MIC Enterococcus faecalis (GC 3059)?
false

In plain terms, does CCOc1cc(COCC2OC(OC3C(CO)OC(Oc4ccc(CC5NC(=O)C(C(C)c6ccccc6)NC(=O)CNC(=O)C(CO)NC(=O)C(C(O)C6CNC(=N)N6C6OC(CO)C(O)C(O)C6O)NC(=O)C(C(O)C6CNC(=N)N6)NC5=O)cc4)C(O)C3O)C(O)C(O)C2O)ccc1OC (stereo not shown) come in under 20 µg/mL for MIC Enterococcus faecalis (GC 3059)?
false

In plain terms, does CC(c1ccccc1)C1NC(=O)CNC(=O)C(CO)NC(=O)C(C(O)C2CNC(=N)N2C2OC(CO)C(O)C(O)C2O)NC(=O)C(C(O)C2CNC(=N)N2)NC(=O)C(Cc2ccc(OC3OC(CO)C(OC4OC(CO)C(OCC=C(c5ccccc5)c5ccccc5)C(O)C4O)C(O)C3O)cc2)NC1=O (stereo not shown) [Example 241a] come in under 20 µg/mL for MIC Enterococcus faecalis (GC 3059)?
true

In plain terms, does CC(c1ccccc1)C1NC(=O)CNC(=O)C(CO)NC(=O)C(C(O)C2CNC(=N)N2C2OC(CO)C(O)C(O)C2O)NC(=O)C(C(O)C2CNC(=N)N2)NC(=O)C(Cc2ccc(OC3OC(CO)C(OC4OC(CO)C(O)C(OCc5ccc(OCc6ccccc6)cc5)C4O)C(O)C3O)cc2)NC1=O (stereo not shown) [Example 231c] come in under 20 µg/mL for MIC Enterococcus faecalis (GC 3059)?
true

In plain terms, does COc1ccc2cc(COCC3OC(OC4C(CO)OC(Oc5ccc(CC6NC(=O)C(C(C)c7ccccc7)NC(=O)CNC(=O)C(CO)NC(=O)C(CC7CNC(=N)N7C7OC(CO)C(O)C(O)C7O)NC(=O)C(CC7CNC(=N)N7)NC6=O)cc5)C(O)C4O)C(O)C(O)C3O)ccc2c1 (stereo not shown) come in under 20 µg/mL for MIC Enterococcus faecalis (GC 3059)?
true

In plain terms, does COc1ccc2cc(COC3C(CO)OC(OC4C(CO)OC(Oc5ccc(CC6NC(=O)C(C(C)c7ccccc7)NC(=O)CNC(=O)C(CO)NC(=O)C(CC7CNC(=N)N7C7OC(CO)C(O)C(O)C7O)NC(=O)C(CC7CNC(=N)N7)NC6=O)cc5)C(O)C4O)C(O)C3O)ccc2c1 (stereo not shown) [Example 245a] come in under 20 µg/mL for MIC Enterococcus faecalis (GC 3059)?
true

In plain terms, does CC(c1ccccc1)C1NC(=O)CNC(=O)C(CO)NC(=O)C(C(O)C2CNC(=N)N2C2OC(CO)C(O)C(O)C2O)NC(=O)C(C(O)C2CNC(=N)N2)NC(=O)C(Cc2ccc(OC3OC(CO)C(OC4OC5COC6(CCCCC6(C)C)OC5C(O)C4O)C(O)C3O)cc2)NC1=O (stereo not shown) come in under 20 µg/mL for MIC Enterococcus faecalis (GC 3059)?
true

In plain terms, does CC(C)=CCN1CC(C(O)C2NC(=O)C(C(O)C3CNC(=N)N3)NC(=O)C(Cc3ccc(OC4OC(CO)C(OC5OC6COC7(OC6C(O)C5O)C5CC6CC(C5)CC7C6)C(O)C4O)cc3)NC(=O)C(C(C)c3ccccc3)NC(=O)CNC(=O)C(CO)NC2=O)N(C2OC(CO)C(O)C(O)C2O)C1=N (stereo not shown) come in under 20 µg/mL for MIC Enterococcus faecalis (GC 3059)?
true

In plain terms, does CC(C)=CCCC(C)=CCCC(C)=CCOc1cccc(C2OCC3OC(OC4C(CO)OC(Oc5ccc(CC6NC(=O)C(C(C)c7ccccc7)NC(=O)CNC(=O)C(CO)NC(=O)C(C(O)C7CNC(=N)N7C7OC(CO)C(O)C(O)C7O)NC(=O)C(C(O)C7CNC(=N)N7)NC6=O)cc5)C(O)C4O)C(O)C(O)C3O2)c1 (stereo not shown) come in under 20 µg/mL for MIC Enterococcus faecalis (GC 3059)?
false

In plain terms, does CC(c1ccccc1)C1NC(=O)CNC(=O)C(CO)NC(=O)C(C(O)C2CNC(=N)N2C2OC(CO)C(O)C(O)C2O)NC(=O)C(C(O)C2CNC(=N)N2)NC(=O)C(Cc2ccc(OC3OC(CO)C(OC4OC5COC(c6ccc(C(=O)c7ccccc7)cc6)OC5C(O)C4O)C(O)C3O)cc2)NC1=O (stereo not shown) come in under 20 µg/mL for MIC Enterococcus faecalis (GC 3059)?
true

In plain terms, does CC(c1ccccc1)C1NC(=O)CNC(=O)C(CO)NC(=O)C(C(O)C2CNC(=N)N2C2OC(CO)C(O)C(O)C2O)NC(=O)C(C(O)C2CNC(=N)N2)NC(=O)C(Cc2ccc(OC3OC(CO)C(OC4OC5COC6(CCSCC6)OC5C(O)C4O)C(O)C3O)cc2)NC1=O (stereo not shown) come in under 20 µg/mL for MIC Enterococcus faecalis (GC 3059)?
false

In plain terms, does CC(c1ccccc1)C1NC(=O)CNC(=O)C(CO)NC(=O)C(C(O)C2CNC(=N)N2C2OC(CO)C(O)C(O)C2O)NC(=O)C(C(O)C2CNC(=N)N2)NC(=O)C(Cc2ccc(OC3OC(CO)C(OC4OC5COC(c6ccc(Oc7ccc(C(C)(C)C)cc7)cc6)OC5C(O)C4O)C(O)C3O)cc2)NC1=O (stereo not shown) come in under 20 µg/mL for MIC Enterococcus faecalis (GC 3059)?
true

In plain terms, does CC(c1ccccc1)C1NC(=O)CNC(=O)C(CO)NC(=O)C(CC2CNC(=N)N2C2OC(CO)C(O)C(O)C2O)NC(=O)C(CC2CNC(=N)N2)NC(=O)C(Cc2ccc(OC3OC(CO)C(OC4OC(CO)C(OCc5ccc(OCc6ccccc6)cc5)C(O)C4O)C(O)C3O)cc2)NC1=O (stereo not shown) [Example 246a] come in under 20 µg/mL for MIC Enterococcus faecalis (GC 3059)?
true

In plain terms, does CC(c1ccc(Cl)cc1)C1NC(=O)CNC(=O)C(CO)NC(=O)C(C(O)C2CNC(=N)N2C2OC(CO)C(O)C(O)C2O)NC(=O)C(C(O)C2CNC(=N)N2)NC(=O)C(Cc2ccc(OC3OC(CO)C(OC4OC5COC(C6CCCCC6)OC5C(O)C4O)C(O)C3O)cc2)NC1=O (stereo not shown) come in under 20 µg/mL for MIC Enterococcus faecalis (GC 3059)?
true
